System: cynomolgus monkeys
Method Description: 4-week safety study: serum biochemistry
Assay type: in vivo
Stated Conditions: Female, 450 mg/kg, d26
Description: […] (1) Hematological and coagulation index examination were performed using a Bayer ADVIA2120 (Germany) and a Sysmex CA-1500 (Japan). (2) The serum biochemical examination was assessed using a HITACHI 7080 automated analyzer (Japan) and an Easylyte PLUS electrolyte analyzer (MEDICA, America). (3) The 24-h pooled urine of each animal was collected by a tray under each cage. Urinalysis was carried out using Uritest-300 (China). […] Fecal occult blood was detected. […]
Metric: CREA
# answer = value followed by unit

What value of CREA has been reported for the following compound? `COC(=O)NCCCn1nc([C@@H](C)N(C(=O)[C@H]2CNCCO2)C2CC2)c2ccc(C)nc21` 64.3 µM

###

Method Description: Plasma pharmacokinetics and bioavailability after intravenous and oral administration
Assay type: in vivo, cynomolgus monkeys
Stated Conditions: both sexes, cynomolgus monkey, plasma, po, 1 mg/kg, Monkey, 1 mg/kg po
Metric: half-life (h)
Kindly provide the numeric value in h only, without the unit symbol.

What value of half-life has been reported for the following molecule? COC(=O)NCCCn1nc([C@@H](C)N(C(=O)[C@H]2CNCCO2)C2CC2)c2ccc(C)nc21 [compound of Formula I] 2.9

###

Method Description: Plasma pharmacokinetics and bioavailability after intravenous and oral administration
Assay type: in vivo, cynomolgus monkeys
Stated Conditions: both sexes, cynomolgus, cynomolgus monkey, plasma; Monkey, 9 mg/kg po; read-out: Vss/F
Metric: Vd/F (L/kg)
Kindly provide the numeric value in L/kg only, without the unit symbol.

What value of Vd/F has been reported for the following molecule? COC(=O)NCCCn1nc([C@@H](C)N(C(=O)[C@H]2CNCCO2)C2CC2)c2ccc(C)nc21 [compound of Formula I] 55.5

###

Method Description: Plasma pharmacokinetics and bioavailability after intravenous and oral administration
Type: in vivo, cynomolgus monkeys
Stated Conditions: both sexes, cynomolgus monkey, plasma; Monkey, 1 mg/kg iv; read-out: Vss
Metric: Vd (L/kg)
Kindly provide the numeric value in L/kg only, without the unit symbol.

What value of Vd has been reported for the following compound? `COC(=O)NCCCn1nc([C@@H](C)N(C(=O)[C@H]2CNCCO2)C2CC2)c2ccc(C)nc21` 1.86

###

Test system: cynomolgus monkeys
Method Description: 4-week safety study: serum biochemistry
Assay type: in vivo
Stated Conditions: Male, 100 mg/kg, d14
Metric: CREA
# answer = value followed by unit

What value of CREA has been reported for the following compound? `COC(=O)NCCCn1nc([C@@H](C)N(C(=O)[C@H]2CNCCO2)C2CC2)c2ccc(C)nc21` 63 µM

###

Method Description: Plasma pharmacokinetics and bioavailability after intravenous and oral administration
Type: in vivo, cynomolgus monkeys
Stated Conditions: both sexes, cynomolgus monkey, plasma; Monkey, 9 mg/kg po
Metric: AUC (ng·h/mL)
Kindly provide the numeric value in ng·h/mL only, without the unit symbol.

What value of AUC has been reported for the following compound? COC(=O)NCCCn1nc([C@@H](C)N(C(=O)[C@H]2CNCCO2)C2CC2)c2ccc(C)nc21 [compound of Formula I] 426

###

Tested on: cynomolgus monkeys
Method Description: 4-week safety study: serum biochemistry
Type: in vivo
Stated Conditions: high-dose female that died early on d23; d14 data
Metric: CREA

Checklist item: CREA tested on cynomolgus monkeys, entry COC(=O)NCCCn1nc([C@@H](C)N(C(=O)[C@H]2CNCCO2)C2CC2)c2ccc(C)nc21 [compound of Formula I] , value? 526 µmol/L
